For each of the compounds below, state its remaining at 3 h, 5 µM.
- experimental-protocol: Short-term plasma stability with and without esterase inhibitors
- applied-conditions: human, plasma, pH 7.4, Parent Compound Remaining (%), No Esterase Inhibitors, 3 h, 37 °C, pH 7.4, pooled human plasma
Return type: number; implicit unit %.

## Task # query: remaining at 3 h, 5 µM of entry COC(=O)[C@@H](NC(=O)c1cn(CCCCCF)c2ccccc12)C(C)(C)C [(S)-5F-MDMB-PICA (3)]
## Result 97.3

## Task # query: remaining at 3 h, 5 µM of entry COC(=O)[C@@H](NC(=O)c1cn(CC2CCCCC2)c2ccccc12)C(C)C [(S)-AMB-CHMICA (9)]
## Result 93.9

## Task # query: remaining at 3 h, 5 µM of entry COC(=O)[C@@H](NC(=O)c1nn(CCCCCF)c2ccccc12)C(C)C [(S)-5F-AMB-PINACA (10)]
## Result 93

## Task # query: remaining at 3 h, 5 µM of entry C=CCCCn1cc(C(=O)N[C@H](C(=O)OC)C(C)C)c2ccccc21 [(S)-AMB-4en-PICA (7)]
## Result 92.6

## Task # query: remaining at 3 h, 5 µM of entry CC(C)[C@H](NC(=O)c1nn(Cc2ccc(F)cc2)c2ccccc12)C(N)=O [(S)-AB-FUBINACA (8)]
## Result 104

## Task # query: remaining at 3 h, 5 µM of entry COC(=O)[C@@H](NC(=O)c1nn(CCCCF)c2ccccc12)C(C)(C)C [(S)-4F-MDMB-BINACA (4)]
## Result 93.1

## Task # query: remaining at 3 h, 5 µM of entry C=CCCCn1nc(C(=O)N[C@H](C(=O)OC)C(C)(C)C)c2ccccc21 [(S)-MDMB-4en-PINACA (5)]
## Result 94.8

## Task # query: remaining at 3 h, 5 µM of entry C=CCCCn1cc(C(=O)N[C@@H](C(=O)OC)C(C)C)c2ccccc21 [(R)-AMB-4en-PICA (7)]
## Result 91.7

## Task # query: remaining at 3 h, 5 µM of entry COC(=O)[C@@H](NC(=O)c1nn(Cc2ccc(F)cc2)c2ccccc12)C(C)C [(S)-AMB-FUBINACA (1)]
## Result 96.6

## Task # query: remaining at 3 h, 5 µM of entry CC(C)[C@H](NC(=O)c1nn(CC2CCCCC2)c2ccccc12)C(N)=O [(S)-AB-[…] (11)]
## Result 98.2

## Task # query: remaining at 3 h, 5 µM of entry C=CCCCn1cc(C(=O)N[C@H](C(=O)OC)C(C)(C)C)c2ccccc21 [(S)-MDMB-4en-PICA (12)]
## Result 91.5

## Task # query: remaining at 3 h, 5 µM of entry C=CCCCn1nc(C(=O)N[C@@H](C(=O)OC)C(C)(C)C)c2ccccc21 [(R)-MDMB-4en-PINACA (5)]
## Result 87.2

## Task # query: remaining at 3 h, 5 µM of entry COC(=O)[C@@H](NC(=O)c1nn(Cc2ccc(F)cc2)c2ccccc12)C(C)(C)C [(S)-MDMB-FUBINACA (6)]
## Result 94.2

## Task # query: remaining at 3 h, 5 µM of entry COC(=O)[C@@H](NC(=O)c1nn(CCCCCF)c2ccccc12)C(C)(C)C [(S)-5F-MDMB-PINACA (2)]
## Result 92.5

###

- experimental-protocol: Metabolic stability, pooled human liver microsome incubations
- applied-conditions: pHLM, 30 min
readout-label: % parent compound remaining, Average (%)
Return type: number; implicit unit %.

## Task # query: % parent compound remaining, Average of entry COC(=O)C(NC(=O)c1nn(CCCCCF)c2ccccc12)C(C)C (stereo in doubt) [(R)-5F-AMB-PINACA (10)]
## Result 6.8

## Task # query: % parent compound remaining, Average of entry COC(=O)[C@H](NC(=O)c1nn(Cc2ccc(F)cc2)c2ccccc12)C(C)(C)C [(R)-MDMB-FUBINACA (6)]
## Result 33.3

## Task # query: % parent compound remaining, Average of entry COC(=O)[C@H](NC(=O)c1nn(CCCCF)c2ccccc12)C(C)(C)C [(R)-4F-MDMB-BINACA (4)]
## Result 26.6

## Task # query: % parent compound remaining, Average of entry COC(=O)C(NC(=O)c1cn(CC2CCCCC2)c2ccccc12)C(C)C (stereo in doubt) [(R)-AMB-CHMICA (9)]
## Result 11.3

## Task # query: % parent compound remaining, Average of entry COC(=O)[C@@H](NC(=O)c1cn(CC2CCCCC2)c2ccccc12)C(C)C [(S)-AMB-CHMICA (9)]
## Result 2.5

## Task # query: % parent compound remaining, Average of entry COC(=O)[C@@H](NC(=O)c1nn(CCCCCF)c2ccccc12)C(C)C [(S)-5F-AMB-PINACA (10)]
## Result 0.0

## Task # query: % parent compound remaining, Average of entry COC(=O)[C@@H](NC(=O)c1nn(CCCCCF)c2ccccc12)C(C)(C)C [(S)-5F-MDMB-PINACA (2)]
## Result 6.1

###

- experimental-protocol: in vitro
- applied-conditions: human, plasma, pH 7.4
readout-label: half-life (min)
Return type: number; implicit unit min.

## Task # query: half-life of entry `CCN(CC)CCOC(=O)c1ccc(N)cc1`
## Result 6.5

###

- experimental-protocol: Plasma protein binding by equilibrium dialysis
- Assay type: in vitro ADME, human
- applied-conditions: human, pooled human plasma, pH 7.4, equilibrium dialysis 5 h, 37 °C, 10 µg mL^−1; read-out: PPB (%) (converted)
readout-label: fraction unbound at 5 h, 10 µg mL^−1
Please respond with just the number, no unit label.

## Task # query: fraction unbound at 5 h, 10 µg mL^−1 of entry C=CCCCn1nc(C(=O)N[C@H](C(=O)OC)C(C)(C)C)c2ccccc21 [(S)-MDMB-4en-PINACA (5)]
## Result 0.01

## Task # query: fraction unbound at 5 h, 10 µg mL^−1 of entry C=CCCCn1cc(C(=O)N[C@@H](C(=O)OC)C(C)C)c2ccccc21 [(R)-AMB-4en-PICA (7)]
## Result 0.059

## Task # query: fraction unbound at 5 h, 10 µg mL^−1 of entry C=CCCCn1cc(C(=O)N[C@H](C(=O)OC)C(C)C)c2ccccc21 [(S)-AMB-4en-PICA (7)]
## Result 0.053

## Task # query: fraction unbound at 5 h, 10 µg mL^−1 of entry COC(=O)[C@@H](NC(=O)c1nn(CCCCCF)c2ccccc12)C(C)C [(S)-5F-AMB-PINACA (10)]
## Result 0.058

## Task # query: fraction unbound at 5 h, 10 µg mL^−1 of entry COC(=O)[C@H](NC(=O)c1nn(CCCCCF)c2ccccc12)C(C)(C)C [(R)-5F-MDMB-PINACA (2)]
## Result 0.04

## Task # query: fraction unbound at 5 h, 10 µg mL^−1 of entry COC(=O)C1=C(C)NC(C)=C(C(=O)OCCN(C)Cc2ccccc2)C1c1cccc([N+](=O)[O-])c1 (stereo not shown) [nicardipine, reference compound]
## Result 0.023

## Task # query: fraction unbound at 5 h, 10 µg mL^−1 of entry COC(=O)[C@@H](NC(=O)c1nn(Cc2ccc(F)cc2)c2ccccc12)C(C)C [(S)-AMB-FUBINACA (1)]
## Result 0.019

###

- Test system: pooled human cryopreserved hepatocytes (pHHeps)
- experimental-protocol: Metabolic stability, pooled human cryopreserved hepatocyte incubations
- applied-conditions: pHHeps, 30 min
readout-label: % parent compound remaining, Average (%)
Return type: number; implicit unit %.

## Task # query: % parent compound remaining, Average of entry C=CCCCn1nc(C(=O)N[C@@H](C(=O)OC)C(C)(C)C)c2ccccc21 [(R)-MDMB-4en-PINACA (5)]
## Result 38.0

## Task # query: % parent compound remaining, Average of entry C=CCCCn1cc(C(=O)N[C@@H](C(=O)OC)C(C)(C)C)c2ccccc21 [(R)-MDMB-4en-PICA (12)]
## Result 61.6

## Task # query: % parent compound remaining, Average of entry COC(=O)C(NC(=O)c1nn(CCCCCF)c2ccccc12)C(C)C (stereo in doubt) [(R)-5F-AMB-PINACA (10)]
## Result 3.1

## Task # query: % parent compound remaining, Average of entry CC(C)[C@@H](NC(=O)c1nn(Cc2ccc(F)cc2)c2ccccc12)C(N)=O [(R)-AB-FUBINACA (8)]
## Result 75.2

###

- experimental-protocol: Metabolic stability, pooled human liver microsome incubations
- applied-conditions: pHLM, scaling factor 45 mg microsomal protein per gram liver
readout-label: Hepatic extraction ratio, EH
Please respond with just the number, no unit label.

## Task # query: Hepatic extraction ratio, EH of entry COC(=O)[C@H](NC(=O)c1cn(CCCCCF)c2ccccc12)C(C)(C)C [(R)-5F-MDMB-PICA (3)]
## Result 0.31

## Task # query: Hepatic extraction ratio, EH of entry COC(=O)[C@@H](NC(=O)c1nn(CCCCCF)c2ccccc12)C(C)C [(S)-5F-AMB-PINACA (10)]
## Result 0.83

## Task # query: Hepatic extraction ratio, EH of entry C=CCCCn1cc(C(=O)N[C@H](C(=O)OC)C(C)(C)C)c2ccccc21 [(S)-MDMB-4en-PICA (12)]
## Result 0.24

## Task # query: Hepatic extraction ratio, EH of entry COC(=O)[C@@H](NC(=O)c1nn(CCCCCF)c2ccccc12)C(C)(C)C [(S)-5F-MDMB-PINACA (2)]
## Result 0.20

## Task # query: Hepatic extraction ratio, EH of entry COC(=O)[C@H](NC(=O)c1nn(CCCCCF)c2ccccc12)C(C)(C)C [(R)-5F-MDMB-PINACA (2)]
## Result 0.28

## Task # query: Hepatic extraction ratio, EH of entry COC(=O)[C@@H](NC(=O)c1nn(Cc2ccc(F)cc2)c2ccccc12)C(C)(C)C [(S)-MDMB-FUBINACA (6)]
## Result 0.04

## Task # query: Hepatic extraction ratio, EH of entry C=CCCCn1nc(C(=O)N[C@@H](C(=O)OC)C(C)(C)C)c2ccccc21 [(R)-MDMB-4en-PINACA (5)]
## Result 0.21

## Task # query: Hepatic extraction ratio, EH of entry COC(=O)[C@@H](NC(=O)c1cn(CC2CCCCC2)c2ccccc12)C(C)C [(S)-AMB-CHMICA (9)]
## Result 0.18

## Task # query: Hepatic extraction ratio, EH of entry C=CCCCn1cc(C(=O)N[C@@H](C(=O)OC)C(C)(C)C)c2ccccc21 [(R)-MDMB-4en-PICA (12)]
## Result 0.43

## Task # query: Hepatic extraction ratio, EH of entry COC(=O)[C@@H](NC(=O)c1cn(CCCCCF)c2ccccc12)C(C)(C)C [(S)-5F-MDMB-PICA (3)]
## Result 0.35

## Task # query: Hepatic extraction ratio, EH of entry C=CCCCn1nc(C(=O)N[C@H](C(=O)OC)C(C)(C)C)c2ccccc21 [(S)-MDMB-4en-PINACA (5)]
## Result 0.11

## Task # query: Hepatic extraction ratio, EH of entry CC(C)[C@H](NC(=O)c1nn(CC2CCCCC2)c2ccccc12)C(N)=O [(S)-AB-[…] (11)]
## Result 0.08

## Task # query: Hepatic extraction ratio, EH of entry COC(=O)[C@H](NC(=O)c1nn(CCCCF)c2ccccc12)C(C)(C)C [(R)-4F-MDMB-BINACA (4)]
## Result 0.37

## Task # query: Hepatic extraction ratio, EH of entry CC(C)[C@H](NC(=O)c1nn(Cc2ccc(F)cc2)c2ccccc12)C(N)=O [(S)-AB-FUBINACA (8)]
## Result 0.01
